From: patent US4500526A

experiment: Mouse blood levels after single intramuscular injection; format: in vivo, mice; conditions: in vivo, im, 20 mg/kg
Below, each entry is listed with its recorded concentration at 20 min.

molecule: CO/N=C(\C(=O)NC1C(=O)N2C(C(=O)[O-])=C(C[n+]3ccc4scnc4c3)CS[C@H]12)c1csc(N)n1 (some centres unmarked)
result-units: µg/mL
concentration at 20 min: 15

molecule: CO/N=C(\C(=O)NC1C(=O)N2C(C(=O)[O-])=C(C[n+]3ccc4sc(C(N)=O)nc4c3)CS[C@H]12)c1csc(N)n1 (some centres unmarked)
result-units: µg/mL
concentration at 20 min: 18

molecule: CO/N=C(\C(=O)NC1C(=O)N2C(C(=O)[O-])=C(C[n+]3ccc4sc(N)nc4c3)CSC12)c1csc(N)n1 (centres unmarked)
result-units: µg/mL
concentration at 20 min: 14

molecule: C=CCO/N=C(\C(=O)NC1C(=O)N2C(C(=O)[O-])=C(C[n+]3ccc4scnc4c3)CSC12)c1csc(N)n1 (centres unmarked)
result-units: µg/mL
concentration at 20 min: 14

molecule: CO/N=C(\C(=O)NC1C(=O)N2C(C(=O)[O-])=C(C[n+]3ccc4sc(NC(=O)N5CCCC5)nc4c3)CS[C@H]12)c1csc(N)n1 (some centres unmarked)
result-units: µg/mL
concentration at 20 min: 18

molecule: CO/N=C(\C(=O)NC1C(=O)N2C(C(=O)[O-])=C(C[n+]3ccc4sc(C)nc4c3)CSC12)c1csc(N)n1 (centres unmarked)
result-units: µg/mL
concentration at 20 min: 10

molecule: C#CCO/N=C(\C(=O)NC1C(=O)N2C(C(=O)[O-])=C(C[n+]3ccc4sc(N)nc4c3)CS[C@H]12)c1csc(N)n1 (some centres unmarked)
result-units: µg/mL
concentration at 20 min: 11

molecule: CO/N=C(\C(=O)NC1C(=O)N2C(C(=O)[O-])=C(C[n+]3ccc4sc(N(C)C)nc4c3)CS[C@H]12)c1csc(N)n1 (some centres unmarked)
result-units: µg/mL
concentration at 20 min: 13

molecule: Nc1nc(/C(=N/OCC(=O)O)C(=O)NC2C(=O)N3C(C(=O)[O-])=C(C[n+]4ccc5sc(N)nc5c4)CS[C@H]23)cs1 (some centres unmarked)
result-units: µg/mL
concentration at 20 min: 17

molecule: CO/N=C(\C(=O)NC1C(=O)N2C(C(=O)[O-])=C(C[n+]3ccc4sc(SC)nc4c3)CSC12)c1csc(N)n1 (centres unmarked)
result-units: µg/mL
concentration at 20 min: 10

molecule: CO/N=C(\C(=O)NC1C(=O)N2C(C(=O)[O-])=C(C[n+]3ccc4sc(NC(=O)OC)nc4c3)CS[C@H]12)c1csc(N)n1 (some centres unmarked)
result-units: µg/mL
concentration at 20 min: 18

molecule: CCO/N=C(\C(=O)NC1C(=O)N2C(C(=O)[O-])=C(C[n+]3ccc4scnc4c3)CSC12)c1csc(N)n1 (centres unmarked)
result-units: µg/mL
concentration at 20 min: 22

molecule: CC(C)(O/N=C(\C(=O)NC1C(=O)N2C(C(=O)[O-])=C(C[n+]3ccc4scnc4c3)CS[C@H]12)c1csc(N)n1)C(=O)O (some centres unmarked)
result-units: µg/mL
concentration at 20 min: 14

molecule: Cc1nc2c[n+](CC3=C(C(=O)[O-])N4C(=O)C(NC(=O)/C(=N\OC5(C(=O)O)CCC5)c5csc(N)n5)[C@H]4SC3)ccc2s1 (some centres unmarked)
result-units: µg/mL
concentration at 20 min: 10

molecule: CO/N=C(\C(=O)NC1C(=O)N2C(C(=O)[O-])=C(C[n+]3ccc4sc(C(=O)O)nc4c3)CS[C@H]12)c1csc(N)n1 (some centres unmarked)
result-units: µg/mL
concentration at 20 min: 16

molecule: Nc1nc(/C(=N/OC2(C(=O)O)CCC2)C(=O)NC2C(=O)N3C(C(=O)[O-])=C(C[n+]4ccc5sc(N)nc5c4)CS[C@H]23)cs1 (some centres unmarked)
result-units: µg/mL
concentration at 20 min: 16

molecule: CO/N=C(\C(=O)NC1C(=O)N2C(C(=O)[O-])=C(C[n+]3ccc4sc(NC(C)=O)nc4c3)CS[C@H]12)c1csc(N)n1 (some centres unmarked)
result-units: µg/mL
concentration at 20 min: 18

molecule: Nc1nc(/C(=N/OC2(C(=O)O)CCC2)C(=O)NC2C(=O)N3C(C(=O)[O-])=C(C[n+]4ccc5scnc5c4)CS[C@H]23)cs1 (some centres unmarked)
result-units: µg/mL
concentration at 20 min: 12

molecule: CO/N=C(\C(=O)NC1C(=O)N2C(C(=O)[O-])=C(C[n+]3ccc4sc(NC(=O)CN)nc4c3)CS[C@H]12)c1csc(N)n1 (some centres unmarked)
result-units: µg/mL
concentration at 20 min: 17

molecule: CO/N=C(\C(=O)NC1C(=O)N2C(C(=O)[O-])=C(C[n+]3ccc4sc(C=O)nc4c3)CSC12)c1csc(N)n1 (centres unmarked)
result-units: µg/mL
concentration at 20 min: 19

----------
Reported values of concentration at 0.5 h for individual entries
assay: Mouse blood levels after single intramuscular injection; format: in vivo, mice; details: in vivo, im, 20 mg/kg

compound: Nc1nc(/C(=N/OC2(C(=O)O)CCC2)C(=O)NC2C(=O)N3C(C(=O)[O-])=C(C[n+]4ccc5scnc5c4)CS[C@H]23)cs1 (stereo partly shown) [Ie]
concentration at 0.5 h / ng/mL: 7500

compound: CO/N=C(\C(=O)NC1C(=O)N2C(C(=O)[O-])=C(C[n+]3ccc4sc(C)nc4c3)CSC12)c1csc(N)n1 (stereo not shown) [Ih]
concentration at 0.5 h / ng/mL: 6900

compound: CO/N=C(\C(=O)NC1C(=O)N2C(C(=O)[O-])=C(C[n+]3ccc4sc(NC(C)=O)nc4c3)CS[C@H]12)c1csc(N)n1 (stereo partly shown) [Ip]
concentration at 0.5 h / ng/mL: 13000

compound: Cc1nc2c[n+](CC3=C(C(=O)[O-])N4C(=O)C(NC(=O)/C(=N\OC5(C(=O)O)CCC5)c5csc(N)n5)[C@H]4SC3)ccc2s1 (stereo partly shown) [Im]
concentration at 0.5 h / ng/mL: 6900

compound: CO/N=C(\C(=O)NC1C(=O)N2C(C(=O)[O-])=C(C[n+]3ccc4sc(NC(=O)CN)nc4c3)CS[C@H]12)c1csc(N)n1 (stereo partly shown) [Iq]
concentration at 0.5 h / ng/mL: 12000

compound: CO/N=C(\C(=O)NC1C(=O)N2C(C(=O)[O-])=C(C[n+]3ccc4sc(N)nc4c3)CSC12)c1csc(N)n1 (stereo not shown) [In]
concentration at 0.5 h / ng/mL: 7600

compound: CO/N=C(\C(=O)NC1C(=O)N2C(C(=O)[O-])=C(C[n+]3ccc4sc(N(C)C)nc4c3)CS[C@H]12)c1csc(N)n1 (stereo partly shown) [Iu]
concentration at 0.5 h / ng/mL: 9600

----------
The entries below come with measured concentration at 0.5 h values attached.
assay: Mouse blood levels after single intramuscular injection; assay type: in vivo, mice; conditions: in vivo, im, 20 mg/kg
endpoint: concentration at 0.5 h (ng/mL)

compound: Nc1nc(/C(=N/OCC(=O)O)C(=O)NC2C(=O)N3C(C(=O)[O-])=C(C[n+]4ccc5sc(N)nc5c4)CS[C@H]23)cs1 (stereo partly shown)
measurement: 15000
--
compound: CC(C)(O/N=C(\C(=O)NC1C(=O)N2C(C(=O)[O-])=C(C[n+]3ccc4scnc4c3)CS[C@H]12)c1csc(N)n1)C(=O)O (stereo partly shown)
measurement: 11000
--
compound: CO/N=C(\C(=O)NC1C(=O)N2C(C(=O)[O-])=C(C[n+]3ccc4sc(SC)nc4c3)CSC12)c1csc(N)n1 (stereo not shown)
measurement: 5900
--
compound: CO/N=C(\C(=O)NC1C(=O)N2C(C(=O)[O-])=C(C[n+]3ccc4sc(NC(=O)OC)nc4c3)CS[C@H]12)c1csc(N)n1 (stereo partly shown)
measurement: 14000
--
compound: C=CCO/N=C(\C(=O)NC1C(=O)N2C(C(=O)[O-])=C(C[n+]3ccc4scnc4c3)CSC12)c1csc(N)n1 (stereo not shown)
measurement: 10000
--
compound: CO/N=C(\C(=O)NC1C(=O)N2C(C(=O)[O-])=C(C[n+]3ccc4sc(C(N)=O)nc4c3)CS[C@H]12)c1csc(N)n1 (stereo partly shown)
measurement: 20000
--
compound: Nc1nc(/C(=N/OC2(C(=O)O)CCC2)C(=O)NC2C(=O)N3C(C(=O)[O-])=C(C[n+]4ccc5sc(N)nc5c4)CS[C@H]23)cs1 (stereo partly shown)
measurement: 11000

----------
tested on: P. aeruginosa A9843; test: Median protective dose in infected mice; format: in vivo; details: Pseudomonas aeruginosa, im, immediately after intraperitoneal challenge, read-out: PD50
endpoint: ED50 (mg/kg)

compound: CO/N=C(\C(=O)NC1C(=O)N2C(C(=O)[O-])=C(C[n+]3ccc4scnc4c3)CS[C@H]12)c1csc(N)n1 (stereo partly drawn) [Ia]
measurement: 7.2
//
compound: CO/N=C(\C(=O)NC1C(=O)N2C(C(=O)[O-])=C(C[n+]3ccc4sc(NC(C)=O)nc4c3)CS[C@H]12)c1csc(N)n1 (stereo partly drawn) [Ip]
measurement: 16
//
compound: Nc1nc(/C(=N/OC2(C(=O)O)CCC2)C(=O)NC2C(=O)N3C(C(=O)[O-])=C(C[n+]4ccc5sc(N)nc5c4)CS[C@H]23)cs1 (stereo partly drawn) [Ik]
measurement: 5.5
//
compound: CO/N=C(\C(=O)NC1C(=O)N2C(C(=O)[O-])=C(C[n+]3ccc4sc(NC(=O)OC)nc4c3)CS[C@H]12)c1csc(N)n1 (stereo partly drawn) [Is]
measurement: 10
//
compound: Cc1nc2c[n+](CC3=C(C(=O)[O-])N4C(=O)C(NC(=O)/C(=N\OC5(C(=O)O)CCC5)c5csc(N)n5)[C@H]4SC3)ccc2s1 (stereo partly drawn) [Im]
measurement: 9
//
compound: Nc1nc(/C(=N/OC2(C(=O)O)CCC2)C(=O)NC2C(=O)N3C(C(=O)[O-])=C(C[n+]4ccc5scnc5c4)CS[C@H]23)cs1 (stereo partly drawn) [Ie]
measurement: 1.8
